The measured values listed here are drawn from PubChem BioAssay AID1159580.

For each entry below, report its normalized growth value.
- experimental-details: chemical genetic growth profiling, strain panel (AID 1159580);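 also: tested at 20 µM; growth read once vehicle control cultures reached saturation at 30 °C; 1 = growth at the plate median or of vehicle wells; lower values mean less growth of the strain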
- experimental-conditions: S. cerevisiae deletion strains, growth OD, locus YPL055C, strain LGE1, active compounds read low
Out of some 5,500 compounds screened, about 2,000 (36%) were called active. Roughly 18% stayed inconclusive and do not appear here. Some of the results follow.
Answers are plain numbers.

# example entries with known answers
* COc1ccc2c(c1)[nH]c1c(C)nccc12 | 1.02
* CC(=O)N[C@@H](CC(=O)O)C(=O)O | 1.02
* O=C(c1ccc(Cl)cc1)N1CCN(c2ccc(C(F)(F)F)cn2)CC1 | 0.919

Report normalized growth for every entry below.
1. CNC(=O)CSP(=S)(OC)OC
2. Cc1ccc(S(=O)(=O)Oc2cc(=O)n(C)c3ccccc23)cc1

1
0.898

For each of the items listed, what is its normalized growth?
1. CCCN(CCC)[C@@H]1CCc2cccc(O)c2C1
2. C[N+]1(C)C2CC[C@H]1CC(OC(=O)C(O)c1ccccc1)C2 (some centres undefined)
3. CCS(=O)(=O)CCn1c([N+](=O)[O-])cnc1C
4. O=C(O)CNC(=O)C(CS)Cc1ccccc1 (centres undefined)

1.01
0.985
1.06
1.01

* * *

- experimental-details: chemical genetic growth profiling, strain panel (AID 1159580)
- experimental-conditions: S. cerevisiae deletion strains, growth OD, locus YNL067W, strain RPL9B, active compounds read low
Screen size: about 5,500 compounds; about 2,000 (36%) were called active. Not shown: some 18% with an inconclusive outcome. This is one part of the list.
parameter-measured: normalized growth

As a guide, the following entries are already answered.
* CN1CCN(CCCN2c3ccccc3Sc3ccc(Cl)cc32)CC1 | 0.724 (active)
* Cc1c(N(C)CS(=O)(=O)O)c(=O)n(-c2ccccc2)n1C | 1.01 (inactive)
* CC(C)(O)CC[C@@H](O)[C@](C)(O)C1CC[C@@]2(O)C3=CC(=O)C4C[C@@H](O)[C@@H](O)C[C@]4(C)C3CC[C@]12C (some centres not stated) | 1.02 (inactive)
* COc1cc2ccc(=O)oc2cc1O | 1.06 (inactive)
* CC(=O)Oc1ccc2c(c1)CCC1C2CC[C@@]2(C)C1CC[C@@H]2OC(C)=O (some centres not stated) | 0.957 (inactive)

For each of the molecules below, note its normalized growth.
1. COc1cc(OC)c(-c2c(OC)cc(OC)cc2OC)c(OC)c1
2. COc1c2c(cc3occ(-c4ccc5c(c4)OCO5)c(=O)c13)OC(C)(C)C=C2
3. Cc1ncc([N+](=O)[O-])n1CCO
4. O=C(O)c1cc2cc(Cl)ccc2[nH]1
5. COc1ccc2c(c1)[nH]c1c(C)nccc12
6. COc1cc(O)c(C(C)=O)c(OC)c1

1. 1.05 (inactive)
2. 0.986 (inactive)
3. 0.994 (inactive)
4. 1.03 (inactive)
5. 0.971 (inactive)
6. 1 (inactive)

I need normalized growth for every entry listed below, if you could help.
1. CC1(C)S[C@@H]2[C@H](NC(=O)COc3ccccc3)C(=O)N2[C@H]1C(=O)O
2. CC1(C)C=Cc2c(cc3occ(-c4ccc5c(c4)OCO5)c(=O)c3c2O)O1
3. COc1ccc2[nH]cc(CCNC(C)=O)c2c1
4. CCC(=O)O[C@H]1CCC2C3CCc4cc(O)ccc4C3CC[C@@]21C (some centres not stated)
5. Cn1c([N+](=O)[O-])cnc1COC(N)=O
6. C[N+]1(C)C2CC[C@H]1CC(OC(=O)C(O)c1ccccc1)C2 (some centres not stated)
7. CC(=O)N[C@@H](CC(=O)O)C(=O)O
8. C[C@]12CCC3C(CC[C@H]4CC(=O)CC[C@]34C)C1CCC2=O (some centres not stated)

1: 1.01 (inactive); 2: 0.995 (inactive); 3: 1.01 (inactive); 4: 0.974 (inactive); 5: 1.01 (inactive); 6: 0.995 (inactive); 7: 1.02 (inactive); 8: 0.985 (inactive)

Working through the 2 molecules below one at a time, give normalized growth for each.
1. CC(=O)OC1CCC2C3CCc4cc(O)ccc4C3CCC12C (configuration not stated)
2. COc1cc(O)c(C)c(O)c1

1: 0.945 (inactive); 2: 1.01 (inactive)

* * *

- experimental-details: chemical genetic growth profiling, strain panel (AID 1159580);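 also: tested at 20 µM; growth read once vehicle control cultures reached saturation at 30 °C; 1 = growth at the plate median or of vehicle wells; lower values mean less growth of the strain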
- experimental-conditions: S. cerevisiae deletion strains, growth OD, locus YNL161W, strain CBK1, active compounds read low
Among all 5,500 compounds or so, about 2,000 (36%) were called active. Inconclusive results (about 18%) are left out. The list shows a part of the results.
parameter-measured: normalized growth
Numbers only.

Known normalized growth results, listed for orientation:
- COc1ccc(-c2cc(NS(=O)(=O)c3cccc(F)c3)n(-c3ccc(Cl)c(Cl)c3)n2)cc1: 0.971
- O=S(=O)(Nc1ccc(-n2nc(C(F)(F)F)cc2-c2cccs2)cc1)c1ccc(F)cc1: 0.989
- O=S(=O)(Nc1cc(-c2cccs2)nn1-c1ccc(I)cc1)c1cccc(F)c1: 0.974
- CC(=O)Oc1ccc2c(=O)c(Oc3ccc(Cl)cc3)c(C)oc2c1: 0.965
- O=C(NCc1ccc(F)c(Cl)c1)Nc1csc([N+](=O)[O-])c1: 0.983

Give normalized growth for all molecules that follow.
1. FC(F)(F)c1ccc(NC(=S)Nc2ccc(C(F)(F)F)cc2Cl)c(Cl)c1
2. CCOC(=O)C(O)(c1ccc(NC(=O)Nc2ccc(Cl)cc2)cc1)C(F)(F)F (stereo not given)
3. Cc1nn(Cc2cccc(C(=O)O/N=C(/N)c3ccc(Cl)cc3)c2)c(C)c1Br

[0.967, 0.998, 0.984]

Please give normalized growth for each item listed below.
1. O=C(Nc1ccc(Cl)cc1)c1csc([N+](=O)[O-])c1
2. CN(C)c1nc(=S)ss1

1: 0.933; 2: 0.869

* * *

- experimental-details: chemical genetic growth profiling, strain panel (AID 1159580);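 also: tested at 20 µM; growth read once vehicle control cultures reached saturation at 30 °C; 1 = growth at the plate median or of vehicle wells; lower values mean less growth of the strain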
- experimental-conditions: S. cerevisiae deletion strains, growth OD, locus YFL009W, strain cdc4, active compounds read low
About 2,000 (36%) of roughly 5,500 compounds were called active. Not shown: some 18% with an inconclusive outcome. Some of the results follow.
parameter-measured: normalized growth
One number for each entry.

Here's what some known entries look like.
* N#C/C(=N/Nc1ccc(Cl)cc1)C(=O)C1CC1 | 0.844
* N#CC(C#N)=NNc1ccc(-n2ccc(C(F)(F)F)n2)cc1 | 0.876
* O=C(Oc1ccc(C2SCCS2)cc1)c1cccs1 | 1
* N#C/C(=C\C=C\c1ccccc1)c1nc2ccccc2[nH]1 | 0.964
* CSC(SC)=C(C#N)C(=O)c1ccccc1Cl | 0.707
* O=C(N/N=C\c1cc(Cl)cc(Cl)c1O)c1ccccc1Oc1ccccc1 | 0.958
* COc1cc(OC)cc(/C(N)=N\O)c1 | 0.991
* Oc1ccc(-n2nnnc2SCc2ccc(OC(F)(F)F)cc2)cc1 | 0.975

Here are 6 molecules. What values of normalized growth were reported for them?
1. N#C/C(=N/Nc1ccc(Cl)cc1)C(N)=S
2. CC(NC(=S)Nc1ccc(Oc2ccc(Cl)cc2)cc1)c1ccccc1 (stereo not given)
3. CCOC(=O)C(NC(C)=O)(Nc1ccc(F)c(Cl)c1)C(F)(F)F (stereo not given)
4. O=C(OCc1ccc(Oc2ccc(Cl)cc2Cl)c([N+](=O)[O-])c1)c1ccc([N+](=O)[O-])o1
5. O=S(=O)(Nc1cc(-c2cccs2)nn1-c1ccc(I)cc1)c1cccc(F)c1
6. Cc1ccc(C(=O)Nc2ccc3ccccc3n2)cc1

0.468
0.958
0.991
0.956
0.971
0.954

Quick check: normalized growth of CC(=O)Oc1ccc2c(=O)c(Oc3ccc(Cl)cc3)c(C)oc2c1 ?
0.97

* * *

- experimental-details: chemical genetic growth profiling, strain panel (AID 1159580);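 also: tested at 20 µM; growth read once vehicle control cultures reached saturation at 30 °C; 1 = growth at the plate median or of vehicle wells; lower values mean less growth of the strain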
- experimental-conditions: S. cerevisiae deletion strains, growth OD, locus YJL168C, strain set2, active compounds read low
About 2,000 (36%) of roughly 5,500 compounds were called active. Inconclusive results (about 18%) are left out. The list shows a part of the results.
parameter-measured: normalized growth
One number for each entry.

See these solved cases before continuing.
• Cn1cnc([N+](=O)[O-])c1Sc1ncnc2nc[nH]c12 = 0.993
• COc1cc(O)c(C(=O)c2ccccc2)c(OC)c1 = 0.99
• O=c1cc(-c2ccc(O)cc2)oc2cc(O[C@@H]3O[C@H](CO)[C@@H](O)[C@H](O)[C@H]3O[C@@H]3OC[C@](O)(CO)[C@H]3O)cc(O)c12 = 0.994
• CCOC(=O)C1=C(C)NC(C)=C(C(=O)OC)C1c1cccc([N+](=O)[O-])c1 (stereo not given) = 1.01
• COc1c(O)cc(O)cc1O = 1
• O=c1[nH]cnc2nc[nH]c12 = 0.977

Please give normalized growth for each item listed below.
1. COc1cc(OC)c2c(c1Cl)OC1(C2=O)C(O)=CC(=O)CC1C (stereo not given)
2. C[C@]12C=CC(=O)C=C1CCC1C2CC[C@]2(C)C(=O)CCC12 (stereo not given in full)
3. CCCCC/C=C\C/C=C\C/C=C\C/C=C\CCCC(=O)O
4. COc1cc(O)c(C(=O)O)c(O)c1

1: 0.977; 2: 0.978; 3: 0.986; 4: 0.993

Parameters: items (list). Returns: normalized growth for each item.
1. CC(C)=CCOc1cc2oc(=O)ccc2cc1O
2. N#C/C(=C\c1ccc(O)cc1)C(=O)O
3. COc1ccc2c(=O)c(CC(=O)O)coc2c1
4. CSCCC(NC=O)C(=O)NC(CC(C)C)C(=O)NC(Cc1ccccc1)C(=O)O (stereo not given)
5. O=c1n(CCCN2CCN(c3cccc(Cl)c3)CC2)nc2ccccn12
6. C[C@]12CCC3C(CC[C@H]4CC(=O)CC[C@]34C)C1CCC2=O (stereo not given in full)
7. COc1cc(OC)c(-c2c(OC)cc(OC)cc2OC)c(OC)c1
8. COc1cc2ccc(=O)oc2c(O)c1O

1: 0.977; 2: 0.992; 3: 0.987; 4: 1.01; 5: 0.993; 6: 1; 7: 1.02; 8: 0.992

For every item in the list below, what is its measured normalized growth?
1. O=c1[nH]c2ccccc2n1C1CCN(CCCC(c2ccc(F)cc2)c2ccc(F)cc2)CC1
2. CN(C)c1nc(N(C)C)nc(N(C)C)n1

[0.997, 1.01]
